Listing: EC50 of selected compounds
- study_target: endogenously expressed TGR5 in NCI H716 (Homo sapiens)
- Construct: human caecum carcinoma cell line NCI-H716 which endogenously expresses human TGR5; endogenous in cells; host or cells: NCI-H716
- Sequence (Q8TDU6 whole entry): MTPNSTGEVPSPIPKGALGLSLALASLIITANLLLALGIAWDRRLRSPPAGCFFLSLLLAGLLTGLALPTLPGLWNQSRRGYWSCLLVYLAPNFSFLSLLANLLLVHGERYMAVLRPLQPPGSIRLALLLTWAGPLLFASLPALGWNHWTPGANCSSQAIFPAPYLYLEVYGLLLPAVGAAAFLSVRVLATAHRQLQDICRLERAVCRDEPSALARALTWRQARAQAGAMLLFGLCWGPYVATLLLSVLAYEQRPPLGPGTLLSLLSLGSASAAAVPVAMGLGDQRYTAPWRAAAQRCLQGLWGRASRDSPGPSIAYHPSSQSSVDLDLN
- experiment_description: Cell-based TGR5 assay, NCI-H716 cells endogenously expressing human TGR5, cAMP by HTRF
- setup_conditions: 30 min at 37 C, 22 nM to 50 μM, read-out: pEC50 endogenously expressed TGR5 in NCI H716 (converted)

Given the compound CN(C(=O)C1(OCc2cc(Cl)c(CCCNC(=O)NC[C@H](O)[C@@H](O)[C@H](O)[C@H](O)CO)cc2Cl)CC1)c1ccccc1OC1CC1 [Example 96] , write its reported EC50. < 100 nM

Given the compound O=C(NCCCc1cc(Cl)c(CNC2(C(=O)N3CCN(C4CC4)c4ccccc43)CC2)cc1Cl)NCCOCCOCCNC(=O)NCCCc1cc(Cl)c(CNC2(C(=O)N3CCN(C4CC4)c4ccccc43)CC2)cc1Cl [Example 212] , write its reported EC50. 1260 to 50100 nM

Given the compound O=C(N1CCN(C2CC2)c2ccccc21)C1(NCc2cc(Cl)ccc2Cl)CC1 [Example 26] , write its reported EC50. < 100 nM
